Measured kon of individual entries
# TESTED_TARGET: T1, Recombinant human TSLP-his (human, UniProt Q969D9 29-159)
# T1 construct: Prepared in-house; Amine-coupled to CM5 chip in SPR, loaded on APS sensors in Octet, biotin-labeled in the capture ELISA, unlabeled in the cell functional assays; also called human TSLP-his protein
# ASSAY_NOTES: SPR, Biacore T200; TSLP-his amine-coupled to CM5 chip, antibody as analyte; 1:1 Langmuir fit
Please give a number only; it is taken to be in M⁻¹ s⁻¹.

Below: 6 binders and their reported kon.
>  <BINDER>
1H3F11B7 (antibody, V domains shown, Mouse hybridoma mAb) VH: QVQLQQPGTELVKPGASVKMSCKASGYTFTTYWMHWVKQRPGQGLEWIGVIDPSDSDTTYNQKFKGKATLTVDTSSSTAYMQLSSLTSEDSAVYYCTRSLDGYYDYWGQGTTLTVSS VL: DIQMTQSPASLSASVGETVTITCRPTENIYSYLAWYQQKQGKSPHLLVYFARTLAEGVPSRFSGSGSGTQFSLKINSLQPEDFGIYYCQHHYGTPWTFGGGTKLEIK

>  <VALUE_UNIT>
M⁻¹ s⁻¹

>  <kon>
92900

$$$$
>  <BINDER>
1G2H12A1 (antibody, V domains shown, Mouse hybridoma mAb) VH: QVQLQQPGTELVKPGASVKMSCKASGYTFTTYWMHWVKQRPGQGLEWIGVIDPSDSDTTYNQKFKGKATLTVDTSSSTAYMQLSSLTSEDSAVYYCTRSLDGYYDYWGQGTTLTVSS VL: DIQMTQSPASLSASVGETVTITCRPTENIYSYLAWYQQKQGKSPHLLVYFARTLAEGVPSRFSGSGSGTQFSLKINSLQPEDFGIYYCQHHYGTPWTFGGGTKLEIK

>  <VALUE_UNIT>
M⁻¹ s⁻¹

>  <kon>
85200

$$$$
>  <BINDER>
1G3B9B1 (antibody, V domains shown, Mouse hybridoma mAb) VH: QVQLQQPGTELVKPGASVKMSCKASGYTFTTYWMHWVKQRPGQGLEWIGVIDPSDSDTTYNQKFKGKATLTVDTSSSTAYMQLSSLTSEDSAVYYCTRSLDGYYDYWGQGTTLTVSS VL: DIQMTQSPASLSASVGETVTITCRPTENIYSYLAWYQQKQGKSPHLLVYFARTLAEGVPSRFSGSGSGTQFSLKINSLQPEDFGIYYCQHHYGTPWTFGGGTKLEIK

>  <VALUE_UNIT>
M⁻¹ s⁻¹

>  <kon>
93600

$$$$
>  <BINDER>
Mouse D1C2H1H1 (antibody, V domains shown, Mouse hybridoma mAb) VH: QVTLKESGPGILQPSQTLSLTCSFSGFSLSTYGMGIGWIRLPSGKGLEWLASIWWDDNRYFNAALKSRLTISKDASKNQVFLKIASVDTADTATYYCARIEDGYYSYHSYWGQGTLVTVSA VL: DIVLTQSPASLAVSLGQRATISCKASQSVDFDGDSYMNWFQQKPGQPPKLLIYAASNLVSGIPARFSGSGSGTDFTLNIHPVEEEDAATYYCQQIDEDPYTFGGGTKLEIE

>  <VALUE_UNIT>
M⁻¹ s⁻¹

>  <kon>
672000

$$$$
>  <BINDER>
mouse 1C5F12E9 (antibody, V domains shown, also called mouse anti-TSLP 1C5F12E9 antibody) VH: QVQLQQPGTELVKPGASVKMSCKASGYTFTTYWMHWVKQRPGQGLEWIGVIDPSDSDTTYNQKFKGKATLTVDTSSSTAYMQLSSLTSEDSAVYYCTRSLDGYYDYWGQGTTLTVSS VL: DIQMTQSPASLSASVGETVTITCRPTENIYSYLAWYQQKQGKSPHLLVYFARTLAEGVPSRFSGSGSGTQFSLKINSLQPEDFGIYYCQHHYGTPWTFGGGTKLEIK

>  <VALUE_UNIT>
M⁻¹ s⁻¹

>  <kon>
91100

$$$$
>  <BINDER>
1F5H12D7 (antibody, V domains shown) VH: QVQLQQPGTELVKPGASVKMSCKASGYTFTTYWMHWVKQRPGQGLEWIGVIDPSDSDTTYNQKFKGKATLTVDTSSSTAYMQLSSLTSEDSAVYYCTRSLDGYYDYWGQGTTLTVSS VL: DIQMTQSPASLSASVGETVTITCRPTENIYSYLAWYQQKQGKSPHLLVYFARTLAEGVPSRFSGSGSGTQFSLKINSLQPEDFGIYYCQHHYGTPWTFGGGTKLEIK

>  <VALUE_UNIT>
M⁻¹ s⁻¹

>  <kon>
89700

$$$$

Then this binder:
Request the reported kon associated with Mouse D1D8H9F7 (antibody, V domains shown, Mouse hybridoma mAb) VH: QVQLQQSGADLVRPGSSVKISCKTSGFAFSSYYMNWVKQRPGQGLEWIGQIYPGDGETNYNGKFKDKATLTADKSSSTVYMQLSSLTSEDSAVYFCARAGYSDYVYAMDYWGQGTSVTVSS VL: EIVLTQSPALMAASPGEKVTIICSVSSSITSSNLHWYQQKSETSPKPWIYGTSNLASGVPVRFSGSGSGTSYSLTISSMEAEDAATYYCQQWSSFPLTFGSGTKLEIK 172000
